- Target: S. aureus MurE (Staphylococcus aureus, UniProt Q2FZP6)
- Sequence (Q2FZP6 whole entry): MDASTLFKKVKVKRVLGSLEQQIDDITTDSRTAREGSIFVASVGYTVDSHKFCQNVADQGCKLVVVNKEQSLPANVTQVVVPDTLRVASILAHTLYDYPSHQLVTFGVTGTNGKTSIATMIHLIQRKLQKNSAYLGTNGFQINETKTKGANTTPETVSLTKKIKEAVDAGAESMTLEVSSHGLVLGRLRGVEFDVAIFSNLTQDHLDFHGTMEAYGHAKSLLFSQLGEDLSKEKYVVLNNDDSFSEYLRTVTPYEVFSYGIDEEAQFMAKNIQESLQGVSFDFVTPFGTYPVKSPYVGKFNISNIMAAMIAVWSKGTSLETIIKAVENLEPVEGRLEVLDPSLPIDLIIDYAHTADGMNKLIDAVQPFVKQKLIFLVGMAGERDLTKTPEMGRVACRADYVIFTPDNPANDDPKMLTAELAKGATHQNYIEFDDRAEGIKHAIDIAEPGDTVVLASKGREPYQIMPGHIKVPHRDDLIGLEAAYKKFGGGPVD
- Protocol details: MurE enzyme assay (Method B)
- Format: biochemical
- Stated conditions: several inhibitor concentrations, Hill equation
Measure: IC50 (µM)
Answer in µM, number only, no unit symbol.

O=C1/C(=C/c2cccc([N+](=O)[O-])c2)SC(=S)N1Cc1ccc2c(c1)OCO2
7

Entry CN(C)c1ccc(/C=C2\SC(=S)N(Cc3ccc4c(c3)OCO4)C2=O)cc1 : reported IC50 = ? 4.5

Could you tell me which IC50 is on file for O=C1/C(=C/c2ccccn2)SC(=S)N1Cc1ccc2c(c1)OCO2 ? 37

Fill blank: measured IC50 of the compound O=C1/C(=C/c2c(NCC3CCCO3)nc3ccccn3c2=O)SC(=S)N1Cc1ccc2c(c1)OCO2 (centres unmarked) is ____. 5

Quick one: IC50 of O=C1/C(=C/c2ccccc2O)SC(=S)N1Cc1ccc2c(c1)OCO2 ? 1.5

Which value of IC50 has been reported for O=C1/C(=C/c2c(NCCOCCO)nc3ccccn3c2=O)SC(=S)N1Cc1ccc2c(c1)OCO2 in the records? 14

For the compound shown here, O=C1/C(=C/c2c(NCCO)nc3ccccn3c2=O)SC(=S)N1Cc1ccc2c(c1)OCO2 , give the reported IC50. 4

---

- Target: S. aureus MurE (Staphylococcus aureus)
- Protocol details: MurE enzyme assay (Method B)
- Format: biochemical
- Stated conditions: residual activity at 100 μM inhibitor; assay with 5% DMSO and without inhibitor taken as 100%; means of duplicates; read-out: S. aureus MurE RA at 100 μM inhibitor conc.
Response key: class 1 means activity at 100 µM >= 5%; class 0 means activity at 100 µM < 5%.

COc1ccc(/C=C2\SC(=S)N(Cc3ccc4c(c3)OCO4)C2=O)c(OC)c1
class 1

Now look at this entry.
Is it the case that O=C1/C(=C/c2ccccc2O)SC(=S)N1Cc1ccc2c(c1)OCO2 has activity at 100 µM reaching or exceeding 5%? class 1

---

# maps each entry to its activity at 100 µM
- Target: UniProtKB P14900
- Sequence (P14900 whole entry): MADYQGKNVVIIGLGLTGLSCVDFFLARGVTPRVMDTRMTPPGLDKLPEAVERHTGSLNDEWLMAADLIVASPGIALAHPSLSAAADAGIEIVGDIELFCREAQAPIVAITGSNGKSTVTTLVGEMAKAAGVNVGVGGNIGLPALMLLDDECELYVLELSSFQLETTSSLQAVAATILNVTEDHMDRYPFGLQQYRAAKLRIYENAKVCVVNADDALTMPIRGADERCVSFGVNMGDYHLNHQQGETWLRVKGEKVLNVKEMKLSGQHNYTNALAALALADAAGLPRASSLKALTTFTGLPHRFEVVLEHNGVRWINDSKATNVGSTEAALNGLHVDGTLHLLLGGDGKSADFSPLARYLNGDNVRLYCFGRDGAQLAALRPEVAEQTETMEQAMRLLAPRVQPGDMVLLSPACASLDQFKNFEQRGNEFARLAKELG
- Protocol details: MurD enzyme assay (Method A)
- Assay type: biochemical
- Stated conditions: residual activity at 100 μM inhibitor; assay with 5% DMSO and without inhibitor taken as 100%; means of duplicates; read-out: E. coli MurD RA at 100 μM inhibitor conc.
Remember to follow the number with its unit.

Recorded results for 3 molecules are shown here.
CN(C)c1ccc(/C=C2\SC(=S)N(Cc3ccc4c(c3)OCO4)C2=O)cc1 [Example 11]
95%
O=C1/C(=C/c2cccc([N+](=O)[O-])c2)SC(=S)N1Cc1ccc2c(c1)OCO2 [Example 7]
98%
O=C1/C(=C/c2c(NCCO)nc3ccccn3c2=O)SC(=S)N1Cc1ccc2c(c1)OCO2 [Example 4]
26%

--- query ---
Using the record for O=C1/C(=C/c2cccc(O)c2)SC(=S)N1Cc1ccc2c(c1)OCO2 [Example 10] , report its activity at 100 µM. 97%

---

- Target: S. aureus MurE (Staphylococcus aureus, UniProt Q2FZP6)
- Protocol details: MurE enzyme assay (Method B)
- Assay type: biochemical
- Stated conditions: residual activity at 100 μM inhibitor; assay with 5% DMSO and without inhibitor taken as 100%; means of duplicates; read-out: S. aureus MurE RA at 100 μM inhibitor conc.
This listing pairs compounds with measured activity at 100 µM.
Value and unit, in that order.

A selection of reference data follows.
O=C1/C(=C/c2c(NCCO)nc3ccccn3c2=O)SC(=S)N1Cc1ccc2c(c1)OCO2
4%
O=C1/C(=C/c2ccccn2)SC(=S)N1Cc1ccc2c(c1)OCO2
5%
CN(C)c1ccc(/C=C2\SC(=S)N(Cc3ccc4c(c3)OCO4)C2=O)cc1
25%

Given the entry O=C1/C(=C/c2c(NCC3CCCO3)nc3ccccn3c2=O)SC(=S)N1Cc1ccc2c(c1)OCO2 (stereo not shown) , report its measured activity at 100 µM. 4%
